Tested on: NCI/ADR-RES ovarian
Experiment: NCI tumour cell line growth inhibition, 48 h; in the data active = GI50 below about 0.43 µM; inactive = the rest
Mark one answer only. Choices: Yes = active, No = inactive

Fill in: this test's call for O=C1CC(N2C(=O)/C(=C/C(Cl)=C\c3ccc([N+](=O)[O-])cc3)SC2=S)C(=O)N1c1ccc(Cl)cc1 (stereo not drawn) is ___
No

Field: outcome | Entry: COc1cc2c(cc1OCCCCCN1CCN(c3cc(=O)oc4c(C)c(OC)ccc34)CC1)N=C[C@@H]1CCCN1C2=O
No

Recorded test outcome, item CN1CCN(Cc2ccc(NC(=O)c3[nH]ncc3Nc3ccnc4ccsc34)cc2)CC1
No

Recorded test call requested for C=C1C(=O)O[C@H]2[C@H]1CC/C(Cn1cc(Cn3ccc4cc(Cl)ccc43)nn1)=C\CC[C@@]1(C)O[C@@H]21
No

Status in this test for COC1(OC)C[C@H](C)[C@@]23O[C@]24c2cc(O)c5c(c2N[C@H]3C#C/C=C\C#C[C@]14O)C(=O)c1ccccc1C5=O ?
Yes

I would be grateful if you could indicate the recorded call for CCSc1nc(=S)[nH]c2[nH]ncc12 .
No

Dear colleague, could you share the recorded outcome for C[C@@H](Oc1cc(-c2cnn(C3CC4(CCNCC4)C3)c2)cnc1N)c1c(F)ccc(Cl)c1Cl when you have a moment?
No

How was O=S(=O)(NCCNc1cc(-c2cn(-c3ccccc3)nc2-c2cccc(O)c2)ccn1)c1ccc(F)cc1 classified in this test?
No

---

Field: TGI. Provide a value for each of the compounds that follow.
Test system: SK-MEL-5 melanoma
Assay: NCI tumour cell line growth inhibition, 48 h

Given the entry O=C(Nc1cccc(-c2nc3ccccc3[nH]2)c1)c1cccc(NC(=O)c2ccco2)c1 , what TGI was observed with SK-MEL-5 melanoma?
4.1 µM

Query TGI on SK-MEL-5 melanoma for N#Cc1c(N)nc(N2CCOCC2)c(C#N)c1-c1cccc(O)c1
> 100 µM

Param readout = TGI; param system = SK-MEL-5 melanoma; param query = CC(=O)O[C@H]1C(=O)[C@@]2(C)[C@H]([C@H](OC(=O)c3ccccc3)[C@]3(O)C[C@H](OC(=O)[C@H](OC(=O)CCC(=O)OC4CCC(S/N=C(N)/N=C(\N)N(C)C)CC4)[C@@H](NC(=O)c4ccccc4)c4ccccc4)C(C)=C1C3(C)C)[C@]1(OC(C)=O)CO[C@@H]1C[C@@H]2O (stereo partly drawn) ; response: value
10.5 µM

Under SK-MEL-5 melanoma: TGI value of COc1ccc(C2c3cc4c(cc3OC(O)(CO)C2C(=O)O)OCO4)c(OC)c1OC (stereo not drawn) (tested in a mixture with another compound) ?
> 100 µM

Lab note: need TGI with SK-MEL-5 melanoma for entry CCC[C@H](Nc1nc(-c2ccc(NC(=O)NCC)c(OC)c2)ncc1C)c1cccnc1 , please look it up.
0.0912 µM

# get_value(readout= TGI, system= SK-MEL-5 melanoma) for COCC1OCCN1C (stereo not drawn)
> 100 µM

Recall the recorded TGI for O=S(=O)([N-]c1nc2ccccc2nc1-[n+]1ccccc1)c1ccccc1 with SK-MEL-5 melanoma and state it.
> 100 µM

What value of TGI on SK-MEL-5 melanoma does C=CCN1C(=O)N/C(=C\c2ccc(Cl)cc2)C1=O have?
> 100 µM

Tell me reported TGI for c1ccc2c(NCCCCCCCCNc3cccc4ccccc34)cccc2c1 , tested with SK-MEL-5 melanoma.
> 10 µM

Under SK-MEL-5 melanoma: TGI value of C=C1C(=O)O[C@H]2[C@H]1CC/C(COC(=O)N[C@@H](Cc1c[nH]c3ccccc13)C(=O)OC)=C\CC[C@@]1(C)O[C@@H]21 ?
3.26 µM

Notebook: pull reported TGI for SK-MEL-5 melanoma, entry O=C(CCc1ccc(O)c(O)c1)c1ccc(O)c(O)c1O
36.3 µM

Find the measured TGI: item Cn1cc(C(=O)/C(Cl)=C(\Cl)C(=O)O)c2ccccc21 , target or system SK-MEL-5 melanoma.
> 100 µM

Request body: readout TGI, system SK-MEL-5 melanoma, query CC1(C)C[C@H]2C3=CC[C@@H]4[C@@]5(C)CC[C@H](O)C(C)(C)[C@@H]5CC[C@@]4(C)[C@]3(C)C[C@@H](O)[C@@]23C[C@@H]1OC3=O . Return the value.
> 100 µM

Please state recorded TGI (tested on SK-MEL-5 melanoma) of Cc1cccc(NC(=O)CSc2nnc(Cc3ccccc3)o2)c1
> 100 µM

Please state recorded TGI (tested on SK-MEL-5 melanoma) of CC(C)CC(=O)OC[n+]1cccc(-c2c(COC(=O)NC(C)C)c(COC(=O)NC(C)C)c3n2CCC3)c1
> 100 µM

Notebook: pull reported TGI for SK-MEL-5 melanoma, entry O=C(CSc1nc2sc3c(c2c(=O)n1-c1ccccc1)CCCCC3)N/N=C/c1ccc(F)cc1
9.56 µM

Item: BrC12C3C4C5C(C(C43)C13OCCO3)C52 (stereo not drawn) Test system: SK-MEL-5 melanoma Read-out: TGI Value: ?
> 100 µM

Give SK-MEL-5 melanoma TGI for Cn1c(Cc2ccccc2)nc2cc3ccccc3cc21
29.1 µM

---

System: A549 NSCLC
Assay: NCI tumour cell line growth inhibition, 48 h
*1 amine or outer side, *2 acyl side, *3 side chain or, on linkers, in order; H or OH if unused. Where a SMILES comes first, the peptide text is derived from it. CO = O=C([*:1])[*:2]
What GI50 was measured for each of the following?

Name the recorded GI50 for Fc1ccc(Nc2ccc3cc(OCCCN4CCOCC4)ccc3n2)cc1F .
5.36 µM

Look up GI50: O=C(Nc1nc(-c2ccc(Cl)cc2)cs1)c1ccc(O)c(O)c1
2.91 µM

Requested field: GI50. Item: Cc1cc(S(=O)(=O)/N=C(\N)n2nc(C)c(C)c2C)c(SCc2ccccc2)cc1Cl
14 µM

Would you mind telling me what GI50 value was observed for O=C(/C=C/C12c3ccccc3C(c3ccccc31)C1C(=O)NC(=O)C12)c1ccco1 (configuration not stated) ?
3.25 µM

Name the reported GI50 value associated with the compound Nc1c(C(=O)Nc2cccc3ccccc23)sc2nc3c(cc12)CCCCC3
1.9 µM

Request the reported GI50 associated with O=C(c1cccs1)c1c(C(F)(F)F)n([O-])c2cc(C(F)(F)F)ccc2[n+]1=O
0.242 µM

Value lookup for GI50; key = CN1CCN(CCCOc2ccc3ncnc(Nc4ccc(Oc5cccc(C(F)(F)F)c5)c(Cl)c4)c3c2)CC1
1.27 µM

I would be grateful if you could share the reported GI50 for CC(=O)O[C@H]1C(=O)[C@@]2(C)[C@H]([C@H](OC(=O)c3ccccc3)[C@]3(O)C[C@H](OC(=O)[C@H](OC(=O)CCC(=O)OC4CCC(S/N=C(N)/N=C(\N)N(C)C)CC4)[C@@H](NC(=O)c4ccccc4)c4ccccc4)C(C)=C1C3(C)C)[C@]1(OC(C)=O)CO[C@@H]1C[C@@H]2O (some centres not stated) .
0.0084 µM

Recorded GI50 of N#Cc1c(N)nc(N2CCOCC2)c(C#N)c1-c1cccc(O)c1 , please.
> 100 µM

Need GI50 of COc1ccc2c(c1)/C(=C/c1c(-c3ccc(C)cc3)nc3sc(C)cn13)C(=O)N2 , thanks.
12.5 µM

Bench note: what GI50 did CC(C)C(NC(=O)C(CCCN=C(N)N)NC(=O)NC(Cc1ccccc1)C(=O)O)C(=O)NC(C=O)CCCN=C(N)N (stereo not drawn) ({Phe-CO}-Arg-Val-Arg-aldehyde; configuration not given here) show?
> 5 µM

Fill blank: measured GI50 of the compound O=c1[nH]cnc2c1nnn2[C@@H]1O[C@H](CO)[C@@H](O)[C@H]1O is ____.
27.5 µM

---

Tested on: NCI/ADR-RES ovarian
Test: NCI tumour cell line growth inhibition, 48 h
Can you tell me GI50 for the items I'm about to list?

Value wanted: GI50 (NCI/ADR-RES ovarian) of entry CNC(=O)c1ccc(Nc2nc(OC3CCCC3)c3c(-c4ccc5nc(C)oc5c4)c[nH]c3n2)c(OC)c1
1710 nM

Identify the measured GI50 of COc1cc(C(=O)O)ccc1NC(=O)[C@@H]1N[C@@H](CC(C)(C)C)[C@](C#N)(c2ccc(Cl)cc2F)[C@H]1c1cccc(Cl)c1F for NCI/ADR-RES ovarian.
6830 nM

// map COc1cc(/C=C/C(=O)CC(=O)/C=C/c2ccc(OC(=O)CCNC34CC5CC(CC(C5)C3)C4)c(OC)c2)ccc1OC(=O)CCNC12CC3CC(CC(C3)C1)C2 to recorded GI50 (system: NCI/ADR-RES ovarian)
8000 nM

Notebook: pull reported GI50 for NCI/ADR-RES ovarian, entry CN(C)c1ccc2[nH]c(O)c(C=Nc3ccc(S(N)(=O)=O)cc3)c2c1
> 25000 nM

What is its GI50 for NCI/ADR-RES ovarian? Entry: O=c1[nH]cnc2c1nnn2[C@@H]1O[C@H](CO)[C@@H](O)[C@H]1O
2270 nM

Observed GI50 on NCI/ADR-RES ovarian for CO[C@H]1C[C@@H]2CC[C@@H](C)[C@@](O)(O2)C(=O)C(=O)N2CCCC[C@H]2C(=O)O[C@H]([C@H](C)C[C@@H]2CC[C@@H](OC(=O)C(C)(CO)CO)[C@H](OC)C2)CC(=O)[C@H](C)/C=C(\C)[C@@H](O)[C@@H](OC)C(=O)[C@H](C)C[C@H](C)/C=C/C=C/C=C/1C , please.
1010 nM

Given the entry Cc1c(N(C(=O)c2cc(-c3cc(Cl)ccc3C(=O)N3Cc4ccccc4C[C@H]3CN3CCOCC3)n(C)c2C)c2ccc(O)cc2)cc(C#N)n1C , what GI50 was observed with NCI/ADR-RES ovarian?
50600 nM

Please state recorded GI50 (tested on NCI/ADR-RES ovarian) of C=C1C(=O)O[C@H]2[C@H]1CC/C(COC(=O)NCCc1c[nH]c3ccccc13)=C\CC[C@@]1(C)O[C@@H]21
2500 nM

Data origin, for the record: PubChem BioAssay (NCI)
